Assay: solvent given as SMILES
Details: in C1CCOC1
experimental endpoint: log10 fluorescence lifetime (log10 of the value in ns)

compound | log10 fluorescence lifetime
O=[N+]([O-])c1ccc(F)cc1C1CC(c2cccc3ccccc23)=NN1c1ccccc1 (stereo unspecified) | 0.58
COc1cc2c(cc1/C=C/C1=CC(=C(C#N)C#N)CC(C)(C)C1)c1ccccc1n2C | 0.81
c1ccc(N2c3ccc4ccccc4c3-c3c4ccccc4nc[n+]3[B-]2(c2ccccc2)c2ccccc2)cc1 | -0.27
COC(=O)c1cc2c(cc3ccc4cccc5ccc2c3c45)[nH]1 | 0.36
Cc1ccc(C(=O)NN2C3=C(CC4=C2CCCC4=O)C(=O)CCC3)cc1 | 0.61
COc1cc2c(cc1-c1ccc(C#N)cc1)Cc1c3c(c4c(c1-2)-c1cc(OC)c(-c2ccc(C#N)cc2)cc1C4)C(=O)N(CCC(C)C)C3=O | 0.32
CCN1\C(=C/C=C/C=C/C2=[N+](CC)c3ccc4ccccc4c3C2(C)C)C(C)(C)c2c1ccc1ccccc21 | 0.05
CCC1(CC)c2ccccc2-c2c1c1c(c3c2C(CC)(CC)c2cc(B(c4c(C)cc(C)cc4C)c4c(C)cc(C)cc4C)ccc2-3)C(CC)(CC)c2ccccc2-1 | 0.51
CSc1nc(-c2ccc(-n3c4ccccc4c4ccccc43)cc2)cc(-c2ccc(-n3c4ccccc4c4ccccc43)cc2)n1 | 0.51
C(=C\c1nc(/C=C/c2ccc(-n3c4ccccc4c4ccccc43)cc2)nc(/C=C/c2ccc(-n3c4ccccc4c4ccccc43)cc2)n1)/c1ccc(-n2c3ccccc3c3ccccc32)cc1 | 0.52
O=C1c2ccc3c4c(Oc5ccccc5)cc5c6c(ccc(c7c(Oc8ccccc8)cc(c2c37)C(=O)N1c1ccc(O)cc1)c64)C(=O)N(c1ccc(O)cc1)C5=O | 0.88
CC1(C)c2cc(C#N)ccc2-c2ccc(N3c4ccccc4Oc4ccccc43)cc21 | 0.99
CC1=[N+]2C(=C(c3ccccc3)c3ccc(/C=C/c4ccc(C(=C(c5ccccc5)c5ccccc5)c5ccccc5)cc4)n3[B-]2(F)F)C=C1 | 0.73
CCCCCCCCCCCCOc1ccc(C#Cc2ccc(C#Cc3ccc(OCCCCCCCCCCCC)c(OCCCCCCCCCCCC)c3)c3nc4c5ccccc5c5ccccc5c4nc23)cc1OCCCCCCCCCCCC | 0.91
CCCCCCCCN1c2ccccc2Sc2cc(/C=C/c3ccc(N(c4ccc(/C=C/c5ccc6c(c5)Sc5ccccc5N6CCCCCCCC)cc4)c4ccc(/C=C/c5ccc(/C=C/c6ccc(N(c7ccc(/C=C/c8ccc9c(c8)Sc8ccccc8N9CCCCCCCC)cc7)c7ccc(/C=C/c8ccc9c(c8)Sc8ccccc8N9CCCCCCCC)cc7)cc6)c6nsnc56)cc4)cc3)ccc21 | 0.16
CCOC(=O)C(C(=O)OCC)C1=[N+]2C(=C(c3ccc(C)cc3)c3ccc(C(C(=O)OCC)C(=O)OCC)n3[B-]2(F)F)C=C1 | 0.45
CCC1(CC)c2cc(-c3cccs3)ccc2-c2c1c1c(c3c2C(CC)(CC)c2cc(-c4cccs4)ccc2-3)C(CC)(CC)c2cc(-c3cccs3)ccc2-1 | 0.32
COC(=O)/C=C/c1ccc2ccc3cccc4ccc1c2c34 | 0.45
COc1ccc(C(=Cc2ccc(C#N)cc2)c2ccc(OC)cc2)cc1 | 0.84
O=C1c2ccc3c4ccc5c6c(ccc(c7ccc(c2c37)C(=O)N1c1ccncc1)c64)C(=O)N(c1ccncc1)C5=O | 0.28
COc1ccc(-c2c3ccc([nH]3)c3nc(c(-c4ccc(C#N)cc4)c4ccc([nH]4)c4ccc([nH]4)c(-c4ccc(OC)cc4)c4ccc2o4)C=C3)cc1 | 0.75

###

Test: solvent given as SMILES
Settings: in CCO

molecule | fluorescence lifetime (ns)
N#Cc1ccc(C[C@H](N)C(=O)O)cc1 | 4.1
CNc1cccc2c1C(=O)c1ccccc1-2 | 2.8
COc1cnc(-c2cc[n+](C3=C(F)C(F)(F)C(F)(F)[C-]3F)cc2)s1 | 1.04
CN(C)c1ccc(-c2ccc(C#N)s2)s1 | 2.72
CCN(CC)c1ccc2cc3c([o+]c2c1)/C(=C/Nc1ccccc1)CCC3 | 4.05
O=C([O-])c1ccc(C(=O)[O-])c(C2=c3cc4c5c(c3Oc3c2cc2c6c3CCCN6CCC2)CCC[N+]=5CCC4)c1 | 5.21
CCOc1cc2c(cc1/C=C/C1=CC(=C(C#N)C#N)CC(C)(C)C1)c1ccccc1n2CC | 4.28
CCCCCCCCCCCCCCCCN(CCCCCCCCCCCCCCCC)c1ccc(/C=C/c2cc[n+](Cc3cc(C[n+]4ccc(/C=C/c5ccc(N(CCCCCCCCCCCCCCCC)CCCCCCCCCCCCCCCC)cc5)cc4)cc(C[n+]4ccc(/C=C/c5ccc(N(CCCCCCCCCCCCCCCC)CCCCCCCCCCCCCCCC)cc5)cc4)c3)cc2)cc1 | 0.17
CC(=O)Nc1ccccc1C(=O)OC1CC(C)CCC1C(C)C (centres undefined) | 3.6
Clc1ncc(-c2c3ccccc3c(-c3cnc(Cl)nc3)c3ccccc23)cn1 | 2.1
COc1ccc2cc([C@H](C)C(=O)O)ccc2c1 | 10.4
CCOc1cc2c(cc1/C=C/C(=C(C#N)C#N)c1ccccc1)c1ccccc1n2CC | 5.24
c1ccc(-c2cc(-c3ccc4ccc5c(-c6ccnc(-c7ccccn7)c6)ccc6ccc3c4c65)ccn2)nc1 | 2.1
CCC1(CC)c2cc(-c3ccc(-c4ccc5c(c4)C(CC)(CC)c4cc(C(C)(C)C)ccc4-5)cc3)ccc2-c2ccc(C(C)(C)C)cc21 | 0.82
Cc1cc(C)c(-c2nnc(-c3ccc(-n4c5ccccc5c5ccccc54)cc3)o2)c(C)c1 | 2.1
Cc1ccc(C2=C3C=C(I)C=[N+]3[B-](F)(F)n3cccc32)cc1 | 0.07
CCN(CC)c1ccc2cc(-c3nc4ccccc4s3)c(=O)oc2c1 | 2.5
c1ccc(-c2c3ccccc3c(-c3cncnc3)c3ccccc23)cc1 | 3.5
O=C1c2ccc3c4ccc5c6c(ccc(c7ccc(c2c37)C(=O)N1c1ccncc1)c64)C(=O)N(c1ccncc1)C5=O | 0.77
CCN(CC)c1cc2oc(=O)cc(C)c2cc1C | 2.56
Cc1nc2c(c[n+]1C)CN1C(=O)N([C@H]3O[C@@H](CO)[C@H](O)[C@@H]3O)C=CC1=N2 | 0.47
Cc1c2oc3c(C)c(N)cc(C(=O)NC4OC(=O)C(C(C)C)N(C)C(=O)CN(C)C(=O)C5CCCN5C(=O)C(C(C)C)NC4=O)c3nc-2c(C(=O)NC2OC(=O)C(C(C)C)N(C)C(=O)CN(C)C(=O)C3CCCN3C(=O)C(C(C)C)NC2=O)c(N)c1=O (centres undefined) | 1.22
CCOC(=O)c1ccccc1-c1c2ccc(=[N+](CC)CC)cc-2oc2c1c(=O)oc1cc(N(CC)CC)ccc12 | 2.12
CCN(CC)c1ccc2c(-c3ccccc3C(=O)O)c3c([o+]c2c1)/C(=C/Nc1ccccc1)CCC3 | 5.19
CC1(C)Nc2cc(Cl)ccc2-c2[nH]c3ccccc3c(=O)c21 | 9
CN1CCCc2cc3c(C(F)(F)F)cc(=O)oc3cc21 | 5.1
CC(=O)c1ccc2ccc3cccc4ccc1c2c34 | 0.784
CN(C)c1ccc(/C=C2\CC/C(=C\c3ccc(C#N)cc3)C2=O)cc1 | 0.14
O=C([O-])c1ccccc1-c1c2cc(I)c(=O)c(I)c-2oc2c(I)c([O-])c(I)cc12 | 0.565
CCC1(CC)c2cc(-c3ccc(C(C)(C)C)cc3)ccc2-c2ccc(-c3ccc4c(c3)C(CC)(CC)c3cc(-c5ccc6c(c5)C(CC)(CC)c5cc(-c7ccc(C(C)(C)C)cc7)ccc5-6)ccc3-4)cc21 | 0.67
CCOc1ccc2c(-c3nc(-c4ccccc4F)no3)cc(=O)oc2c1 | 6.6
COC(=O)c1ccccc1-c1c2ccc(=[NH2+])cc-2oc2cc(N)ccc12 | 3.99
COC(=O)C(Cc1ccc2oc(-c3ccc(N(C)C)cc3)nc2c1)NC(=O)OC(C)(C)C (centres undefined) | 1.35
CC1(C)CC(/C=C/c2ccc(N3CCOCCOCCOCCOCC3)cc2)=CC(=C(C#N)C#N)C1 | 0.79

###

Assay: solvent given as SMILES
Conditions: in CO
experimental endpoint: fluorescence lifetime (ns)

compound | measurement unit | reported value
N#C[Se]CCCCCOc1ccc2ccc(=O)oc2c1 | ns | 0.44
c1ccc2cc3cc(-c4cc(-c5nccs5)nc(-c5nccs5)c4)ccc3cc2c1 | ns | 4.04
COC(=O)C(NC(=O)OC(C)(C)C)c1ccc2oc(-c3ccc(C#N)cc3)nc2c1 (stereo not given) | ns | 1.92
C(=C\N1CCCC1)/c1nc2ccccc2nc1-c1ccccc1 | ns | 0.15
COC(=O)C(Cc1ccc2oc(-c3ccc(N(C)C)cc3)nc2c1)NC(=O)OC(C)(C)C (stereo not given) | ns | 1.26

###

Assay: solvent given as SMILES
Details: in CCOC(C)=O
Listing of entries alongside the reported log10 fluorescence lifetime.
experimental endpoint: log10 fluorescence lifetime (log10 of the value in ns)

smiles entry | log10 fluorescence lifetime
O=Cc1ccc(C2=C3C=c4c(oc5ccccc45)=[N+]3[B-](F)(F)n3c2cc2c4ccccc4oc23)cc1 | 0.33
O=C1c2ccccc2C(=O)c2cc(-c3ccc(N(c4ccccc4)c4ccccc4)cc3)ccc21 | -0.82
N#CC(C#N)=C(/C=C/c1ccc(N(c2ccccc2)c2ccccc2)cc1)c1ccc2c3c(cccc13)CC2 | 0.48
COc1c(-c2ccc(N(C)C)cc2)oc2ccccc2c1=O | 0.22
CC1=CC(C)=[N+]2C1=C(c1ccccc1)c1c(C)cc(C)n1[B-]2(F)F | 0.60
O=C1c2ccccc2-c2ccc(Nc3nc(Cl)nc(Cl)n3)c3cccc1c23 | 0.20
COc1nc(Cl)nc(Nc2ccc3c4cccc5cccc(c6cccc2c63)c54)n1 | 0.54
